Data credit: patent US8399465B2

- Tested on: LTB4 production in murine blood (LTA4H)
- Test method notes: LTB4 production by calcium ionophore-stimulated murine blood for LTA4H inhibitor activity
- Format: cell-based, CD-1 mice
- Stated conditions: Mus musculus; murine blood diluted 1 in 15, A23187 stimulated; single determination or average; mark after value = form tested: ′ free base, ″ hydrochloride, ^ formate; read-out: IC50
pIC50: −log10 of the molar value. Where a name gives a salt, the structure may show the parent alone.
Readout type: pIC50

Reference set (5 entries):
Compound	Readout type	Recorded result
CCN(C(C)=O)C1CCN(Cc2coc3cc(Oc4nc5ncccc5s4)ccc23)CC1	pIC50	7.66
O=C1CCCN1C1CCN(Cc2coc3cc(Oc4nc5ncccc5s4)ccc23)CC1	pIC50	7.68
CC(=O)N[C@H]1C[C@@H]2C[C@H]1CN2Cc1coc2cc(Oc3nc4ncccc4s3)ccc12	pIC50	7.68
CC(=O)NC1CCN(Cc2c[nH]c3cc(Oc4nc5ccccc5s4)ccc23)CC1	pIC50	6.69
CS(=O)(=O)NCCC1CCN(Cc2coc3cc(Oc4nc5ccccc5s4)ccc23)CC1	pIC50	6.51

I: CCOC(=O)NC1CCN(Cc2c[nH]c3cc(Oc4nc5ccccc5s4)ccc23)CC1
II: c1cnc2nc(Oc3ccc4c(CN5CCN(c6ccncc6)CC5)coc4c3)sc2c1 [Example 289, formate]
III: c1cnc2nc(Oc3ccc4c(CN5CCOCC5)coc4c3)sc2c1
IV: Cc1ccnc2nc(Oc3ccc4c(CN5CCOCC5)c[nH]c4c3)sc12
Prompt: Put the entries in order of pIC50, starting with the largest number. A ranking is expressed here by listing the labels in the requested order.
Response: III, II, I, IV

I: O=C(O)C1CCN(Cc2cc3ccc(Oc4nc5ccccc5s4)cc3o2)CC1
II: CC(=O)N1C[C@@H]2C[C@H]1CN2Cc1cc2ccc(Oc3nc4ncccc4s3)cc2o1
Prompt: Between item I and item II , which reported pIC50 is smaller? Write down the label attached to your selection.
Response: II
(II: 6.68, I: 7.52)

###

- Target system: recombinant human LTA4 hydrolase (rhLTA4H) (Homo sapiens, UniProt P09960)
- Construct: made in house; host or cells: Spodoptera frugiperda (Sf-9) cells, baculovirus (pFastBac1)
- Sequence (P09960 whole entry): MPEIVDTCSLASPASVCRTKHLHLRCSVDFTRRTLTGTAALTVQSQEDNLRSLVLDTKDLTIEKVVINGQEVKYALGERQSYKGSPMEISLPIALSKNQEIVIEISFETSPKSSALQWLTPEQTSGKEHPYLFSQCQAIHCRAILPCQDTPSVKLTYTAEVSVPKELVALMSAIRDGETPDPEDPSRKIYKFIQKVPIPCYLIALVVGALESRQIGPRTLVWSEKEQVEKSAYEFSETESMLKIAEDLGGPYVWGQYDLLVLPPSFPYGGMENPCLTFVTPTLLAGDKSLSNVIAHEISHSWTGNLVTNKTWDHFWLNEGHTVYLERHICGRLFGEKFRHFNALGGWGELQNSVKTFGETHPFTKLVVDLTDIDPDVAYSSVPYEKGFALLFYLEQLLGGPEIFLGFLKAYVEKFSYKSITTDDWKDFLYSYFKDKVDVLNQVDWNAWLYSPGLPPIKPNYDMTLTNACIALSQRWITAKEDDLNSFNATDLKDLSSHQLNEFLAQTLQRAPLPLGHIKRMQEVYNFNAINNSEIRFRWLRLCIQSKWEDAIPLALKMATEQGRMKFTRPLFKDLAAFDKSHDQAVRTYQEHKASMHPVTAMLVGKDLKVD
- Test method notes: Recombinant human LTA4 hydrolase assay for LTA4 hydrolase inhibitor activity
- Assay type: biochemical
- Stated conditions: rhLTA4H, LTB4 by immunoassay; single determination or average of two or more; mark after value = form tested: ′ free base, ″ hydrochloride, ^ formate; read-out: IC50
Readout type: IC50 (nM)

Reference set (2 entries):
Compound	Readout type	Value units	Recorded result
NC(=O)N1C[C@H]2C[C@@H]1CN2Cc1coc2cc(Oc3nc4ncccc4s3)ccc12	IC50	nM	5
CC(=O)N[C@H]1C[C@H]2CC[C@@H](C1)N2Cc1cc2ccc(Oc3nc4ccccc4s3)cc2[nH]1	IC50	nM	1

P: CC(=O)N1C[C@H]2C[C@@H]1CN2Cc1cc2cc(Oc3nc4ncccc4s3)ccc2o1
Q: OCC1CCN(Cc2coc3cc(Oc4nc5ncccc5s4)ccc23)CC1
R: CC(=O)NC1CCN(Cc2c[nH]c3cc(Oc4nc5ccccc5s4)ccc23)CC1
Prompt: Hi! Can you put these in order of IC50, lowest number first? A ranking is expressed here by listing the labels in the requested order.
Response: Q, R, P
(Q: 4 nM, R: 8 nM, P: 12 nM)

###

- Tested on: LTB4 production in murine blood (LTA4H)
- Test method notes: LTB4 production by calcium ionophore-stimulated murine blood for LTA4H inhibitor activity
- Format: cell-based, CD-1 mice
- Stated conditions: Mus musculus; murine blood diluted 1 in 15, A23187 stimulated; single determination or average; mark after value = form tested: ′ free base, ″ hydrochloride, ^ formate; read-out: IC50
Readout type: IC50 (nM)

1: NC(=O)N1CC2CN(Cc3coc4cc(Oc5nc6ncccc6s5)ccc34)CC2C1 (stereo not shown)
2: CC(C)(C)OC(=O)NC1CCN(Cc2c[nH]c3cc(Oc4nc5ccccc5s4)ccc23)CC1
3: c1cnc2nc(Oc3ccc4c(CNC5CCCC5)coc4c3)sc2c1
Prompt: Order by IC50, smallest first, the items presented above. A ranking is expressed here by listing the labels in the requested order.
Response: 3, 1, 2

###

- Target system: recombinant human LTA4 hydrolase (rhLTA4H) (Homo sapiens)
- Construct: made in house; host or cells: Spodoptera frugiperda (Sf-9) cells, baculovirus (pFastBac1)
- Test method notes: Recombinant human LTA4 hydrolase assay for LTA4 hydrolase inhibitor activity
- Format: biochemical
- Stated conditions: rhLTA4H, LTB4 by immunoassay; single determination or average of two or more; mark after value = form tested: ′ free base, ″ hydrochloride, ^ formate; read-out: IC50
- Protocol: Assay 1: Recombinant Human LTA4 Hydrolase Assay for LTA4 Hydrolase Inhibitor Activity Compounds of the present invention were tested for LTA4 hydrolase inhibitor activity against recombinant human LTA4 hydrolase (rhLTA4H). Vectors were prepared and used to express rhLTA4H essentially as follows: LTA4 hydrolase encoding DNA was amplified by polymerase chain reaction (PCR) using a human placental cDNA library as a template. […]
Structures can show the parent of a compound that is named as a salt.
Readout type: IC50 (nM)

Molecule	Target system	Value units	IC50
c1cnc(N2CCN(Cc3coc4cc(Oc5nc6ncccc6s5)ccc34)CC2)nc1 [Example 292, formate]	recombinant human LTA4 hydrolase (rhLTA4H) (Homo sapiens)	nM	40
c1ccc(CCNCc2coc3cc(Oc4nc5ncccc5s4)ccc23)cc1 [Example 321, formate]	recombinant human LTA4 hydrolase (rhLTA4H) (Homo sapiens)	nM	40
CC(=O)N(Cc1coc2cc(Oc3nc4ncccc4s3)ccc12)[C@H]1CN2CCC1CC2 [Example 404, formate]	recombinant human LTA4 hydrolase (rhLTA4H) (Homo sapiens)	nM	2
CC(=O)N[C@H]1C[C@@H]2C[C@H]1CN2Cc1cc2cc(Oc3nc4ncccc4s3)ccc2o1	recombinant human LTA4 hydrolase (rhLTA4H) (Homo sapiens)	nM	26

P: c1ccc2sc(Oc3ccc4c(CN5C[C@@H]6C[C@H]5CO6)c[nH]c4c3)nc2c1
Q: CS(=O)(=O)N1CCCN(Cc2coc3cc(Oc4nc5ncccc5s4)ccc23)CC1
Prompt: Between item P and item Q , which reported IC50 is smaller? Write down the label attached to your selection.
Response: Q
(Q: 9 nM, P: 13 nM)

I: CC(=O)N1C[C@@H]2C[C@H]1CN2Cc1cc2ccc(Oc3nc4ncccc4s3)cc2o1
II: CC(=O)N1CC2CN(Cc3cc4ccc(Oc5nc6ncccc6s5)cc4o3)CC2C1 (centres unmarked)
III: c1cnc2nc(Oc3ccc4c(CNC5CCCC5)coc4c3)sc2c1
IV: CC(=O)N1C[C@@H]2C[C@H]1CN2Cc1cc2ccc(Oc3nc4cccnc4s3)cc2o1
V: CC(C)(O)C1CCN(Cc2coc3cc(Oc4nc5ncccc5s4)ccc23)CC1
Prompt: Hi! Can you put these in order of IC50, lowest number first? A ranking is expressed here by listing the labels in the requested order.
Response: V, III, I, II, IV

I: COC(=O)c1ccc(C(=O)NCc2coc3cc(Oc4nc5ncccc5s4)ccc23)cc1
II: CC(=O)N1CCN(CC(=O)NCc2coc3cc(Oc4nc5ncccc5s4)ccc23)CC1
Prompt: Task for the reader: decide whether I or II has the larger IC50. Write down the label attached to your selection.
Response: I
(I: 100 nM, II: 27 nM)

###

- Target system: recombinant human LTA4 hydrolase (rhLTA4H) (Homo sapiens)
- Construct: made in house; host or cells: Spodoptera frugiperda (Sf-9) cells, baculovirus (pFastBac1)
- Test method notes: Recombinant human LTA4 hydrolase assay for LTA4 hydrolase inhibitor activity
- Assay type: biochemical
- Stated conditions: rhLTA4H, LTB4 by immunoassay; single determination or average of two or more; mark after value = form tested: ′ free base, ″ hydrochloride, ^ formate; read-out: IC50
- Description: Assay 1: Recombinant Human LTA4 Hydrolase Assay for LTA4 Hydrolase Inhibitor Activity Compounds of the present invention were tested for LTA4 hydrolase inhibitor activity against recombinant human LTA4 hydrolase (rhLTA4H). Vectors were prepared and used to express rhLTA4H essentially as follows: LTA4 hydrolase encoding DNA was amplified by polymerase chain reaction (PCR) using a human placental cDNA library as a template. […]
Where a name gives a salt, the structure may show the parent alone.
Readout type: IC50 (nM)

1: O=C(O)C1CCN(Cc2cc3ccc(Oc4nc5ccccc5s4)cc3o2)CC1
2: CC(=O)N1C[C@@H]2CC[C@H]1CN2Cc1cc2cc(Oc3nc4ncccc4s3)ccc2o1
3: CCOC(=O)NC1CCN(Cc2c[nH]c3cc(Oc4nc5ccccc5s4)ccc23)CC1
Prompt: Output the entries ranked by IC50 from maximum down to minimum. A ranking is expressed here by listing the labels in the requested order.
Response: 1, 3, 2

P: COC(=O)c1ccc(CN2C[C@@H]3C[C@H]2CN3Cc2coc3cc(Oc4nc5ncccc5s4)ccc23)cc1
Q: NC(=O)N1C[C@@H]2C[C@H]1CN2Cc1cc2cc(Oc3nc4ncccc4s3)ccc2o1
R: COCCN(C)Cc1coc2cc(Oc3nc4ncccc4s3)ccc12
Prompt: Put the entries in order of IC50, starting with the largest number. A ranking is expressed here by listing the labels in the requested order.
Response: Q, P, R

a: c1ccc2sc(Oc3ccc4c(CN5CCc6sc7ccccc7c6C5)c[nH]c4c3)nc2c1 [Example 39, formate]
b: c1ccc2c(c1)CCN(Cc1c[nH]c3cc(Oc4nc5ccccc5s4)ccc13)C2
c: c1ccc2sc(Oc3ccc4c(CN5CCCC5)c[nH]c4c3)nc2c1
d: CN1CCN(C(=O)C2CCN(Cc3c[nH]c4cc(Oc5nc6ccccc6s5)ccc34)CC2)CC1
e: NC(=O)C1CCN(Cc2c[nH]c3cc(Oc4nc5ncccc5s4)ccc23)CC1
Prompt: Put the entries in order of IC50, starting with the largest number. A ranking is expressed here by listing the labels in the requested order.
Response: a, b, c, d, e
